assayed system: HNF4alpha8 (COS-7 nuclear extract) (Homo sapiens, UniProt P41235-5 1-452)
Sequence: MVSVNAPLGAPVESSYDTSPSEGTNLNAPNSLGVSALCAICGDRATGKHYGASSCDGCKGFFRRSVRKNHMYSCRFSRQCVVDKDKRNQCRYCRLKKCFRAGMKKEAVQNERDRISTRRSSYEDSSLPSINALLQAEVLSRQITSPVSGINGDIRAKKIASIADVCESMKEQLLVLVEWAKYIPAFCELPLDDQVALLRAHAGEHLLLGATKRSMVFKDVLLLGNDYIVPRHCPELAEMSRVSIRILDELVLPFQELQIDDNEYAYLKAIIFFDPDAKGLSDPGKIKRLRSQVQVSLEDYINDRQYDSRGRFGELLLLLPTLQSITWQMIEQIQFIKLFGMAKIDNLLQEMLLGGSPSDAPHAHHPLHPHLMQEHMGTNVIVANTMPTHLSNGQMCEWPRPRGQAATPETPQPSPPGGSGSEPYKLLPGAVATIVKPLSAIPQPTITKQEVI
assay details: protein-binding microarray; COS-7 nuclear extract on double-stranded Agilent 4x180k PBM; binding buffer, salt, pH and temperature not given in the material; high values mean tight binding
run parameters: chain copies: 2; label: 3' end of strand 1 on the slide; dsDNA, one strand shown
The full ranking holds about 18,000 sequences; the median of “log2 normalized intensity” is about 0.36, and the highest 2% start at about 7.3. This excerpt belongs to a sample that is enriched for the highest values.
Under this convention, Criterion met denotes binding signal strictly below 6 log2 normalized intensity and Criterion not met denotes binding signal at or above 6 log2 normalized intensity.

                                biosequence        group_label
0  TTACATGCCTTATCTGGTTCAAAGGTCATTGCCTAGGGAGATTAGAGTATCGGTCGA  Criterion not met
1  TCCTTTTATCTTACATGCCTTATCTGGTTCGCCTAGGGAGATTAGAGTATCGGTCGA      Criterion met

Lab note: confirm whether the reported binding signal for this sequence is below 6 log2 normalized intensity, equality not counting. sequence: CTCTGGCCAGAGAGATGTCAGCCCAAGATAGCCTAGGGAGATTAGAGTATCGGTCGA Criterion met

Input TTATCTTACATGCCTTATCTGGTTCAAAGGGCCTAGGGAGATTAGAGTATCGGTCGA ; condition: binding signal strictly below 6 log2 normalized intensity. Does it hold? Criterion met

binding signal strictly < 6 log2 normalized intensity for this sequence? CCTCCATTAACTAACCTTTGAACCAGATGGGCCTAGGGAGATTAGAGTATCGGTCGA Criterion met

# TODO verify binding signal < 6 log2 normalized intensity strictly for this sequence: GGTTCAAAGGTCATTTCTGCTTGCAACCAAGCCTAGGGAGATTAGAGTATCGGTCGA Criterion met

Please state whether binding signal is below 6 log2 normalized intensity for TAAGACTAACCTTTGACCATCCACGGATGCGCCTAGGGAGATTAGAGTATCGGTCGA Criterion met

Decide: binding signal of TGCCTTATCTGGTTCAAAGGTCATTTCTGCGCCTAGGGAGATTAGAGTATCGGTCGA strictly below 6 log2 normalized intensity? Criterion not met

Record TACTCATGTGGTCCTAAGACTAACCTTTGAGCCTAGGGAGATTAGAGTATCGGTCGA : is its binding signal strictly below 6 log2 normalized intensity? Criterion not met

* * *

assayed system: HNF4alpha8 (COS-7 nuclear extract) (Homo sapiens, UniProt P41235-5 1-452)
Sequence: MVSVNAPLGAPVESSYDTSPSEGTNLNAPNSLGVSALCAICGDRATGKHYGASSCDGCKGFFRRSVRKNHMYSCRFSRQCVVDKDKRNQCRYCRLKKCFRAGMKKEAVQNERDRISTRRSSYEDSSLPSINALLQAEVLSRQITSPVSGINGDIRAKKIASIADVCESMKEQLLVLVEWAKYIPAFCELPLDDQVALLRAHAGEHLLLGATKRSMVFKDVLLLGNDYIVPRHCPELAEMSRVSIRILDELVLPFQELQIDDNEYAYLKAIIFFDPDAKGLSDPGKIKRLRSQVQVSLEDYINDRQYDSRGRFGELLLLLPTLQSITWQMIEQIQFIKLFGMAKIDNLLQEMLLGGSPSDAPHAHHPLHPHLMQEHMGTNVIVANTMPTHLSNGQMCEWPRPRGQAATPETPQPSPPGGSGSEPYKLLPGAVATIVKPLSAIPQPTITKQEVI
assay details: protein-binding microarray; COS-7 nuclear extract on double-stranded Agilent 4x180k PBM; binding buffer, salt, pH and temperature not given in the material; high values mean tight binding
run parameters: chain copies: 2; label: 3' end of strand 1 on the slide; dsDNA, one strand shown
In all, about 18,000 sequences were measured (“log2 normalized intensity”: median about 0.36, highest 2% from about 7.3 on). What follows is part of a selection rich in the highest values, with near analogues and random picks from the rest.
reported endpoint: binding signal (log2 normalized intensity)
Numbers only, in log2 normalized intensity.

Consider the reported binding signal for these sequences:
>>> df
                                biosequence                 value_unit  result
0  TCACTGTAACCTTTGCCCCCCAAGTTGAAGGCCTAGGGAGATTAGAGTATCGGTCGA  log2 normalized intensity    7.68
1  GAGGAGACCTTTGGATATCATATCATCTTCGCCTAGGGAGATTAGAGTATCGGTCGA  log2 normalized intensity    2.39
2  GAACTGAAAGAGACCTTTGACATCACCTAAGCCTAGGGAGATTAGAGTATCGGTCGA  log2 normalized intensity    2.77
3  TGCCCTATGTCCTCCAGCTCTTGGGGAACAGCCTAGGGAGATTAGAGTATCGGTCGA  log2 normalized intensity   0.218
4  CAACCCATCCAACTCCTTGAGAAGTACAACGCCTAGGGAGATTAGAGTATCGGTCGA  log2 normalized intensity  -0.809

Take each entry in turn and give its binding signal.
1. GACCATCACCACTTCAAGCTTGGTATGCTTGCCTAGGGAGATTAGAGTATCGGTCGA
2. CTTAGAATCGAATTGTGAAACTCAGAATCAGCCTAGGGAGATTAGAGTATCGGTCGA
3. AACCTTTGCCCCAGCTGTCACCCAGCCAGAGCCTAGGGAGATTAGAGTATCGGTCGA
4. TAGGTACTATTATTAGAGTCCCTTTTTTAGGCCTAGGGAGATTAGAGTATCGGTCGA

[-0.696, -0.796, 4.16, 0.509]

* * *

assayed system: HNF4alpha8 (COS-7 nuclear extract) (Homo sapiens, UniProt P41235-5 1-452)
Sequence: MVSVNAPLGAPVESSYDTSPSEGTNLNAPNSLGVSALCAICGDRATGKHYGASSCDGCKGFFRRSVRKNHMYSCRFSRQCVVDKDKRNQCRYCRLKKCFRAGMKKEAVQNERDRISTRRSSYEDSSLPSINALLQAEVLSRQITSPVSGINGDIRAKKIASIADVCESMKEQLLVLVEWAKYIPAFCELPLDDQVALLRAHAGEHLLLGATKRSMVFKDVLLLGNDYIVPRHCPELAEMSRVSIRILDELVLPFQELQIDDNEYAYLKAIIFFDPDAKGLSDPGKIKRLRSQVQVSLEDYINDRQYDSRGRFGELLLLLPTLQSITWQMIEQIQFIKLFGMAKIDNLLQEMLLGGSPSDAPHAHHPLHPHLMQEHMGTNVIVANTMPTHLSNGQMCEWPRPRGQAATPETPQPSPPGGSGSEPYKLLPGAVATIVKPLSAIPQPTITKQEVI
assay details: protein-binding microarray; COS-7 nuclear extract on double-stranded Agilent 4x180k PBM; binding buffer, salt, pH and temperature not given in the material; high values mean tight binding
run parameters: chain copies: 2; label: 3' end of strand 1 on the slide; dsDNA, one strand shown
Whole data set: some 18,000 sequences, median “log2 normalized intensity” near 0.36, cut for the highest 2% near 7.3. What follows is part of a selection rich in the highest values, with near analogues and random picks from the rest.
Values of binding signal greater than or equal to 4 log2 normalized intensity map to 1; values below map to -1.

Kindly determine if binding signal recorded for ACCTTTATCTGATCAGAAATGTTTGGAATTGCCTAGGGAGATTAGAGTATCGGTCGA is above or exactly 4 log2 normalized intensity. -1

binding signal >= 4 log2 normalized intensity for GACCTCTGCCCTTCCACCCACTTTATCTTCGCCTAGGGAGATTAGAGTATCGGTCGA ? -1

Dear colleague, could you confirm whether GCCATGGACTGCTGACCTTTGAACCCTGAGGCCTAGGGAGATTAGAGTATCGGTCGA has binding signal at or above 4 log2 normalized intensity? 1

Does the sequence TCCTGAGTGATTGTAGTGTCATTGTTATTTGCCTAGGGAGATTAGAGTATCGGTCGA have recorded binding signal that is 4 log2 normalized intensity or more? -1

Evaluate ATTCTTTGCCATGACCTTTGAAGCCCAGAAGCCTAGGGAGATTAGAGTATCGGTCGA : binding signal at minimum 4 log2 normalized intensity? 1

Has ACCAGACTACCTCTTTAGGCTGGACTCTGAGCCTAGGGAGATTAGAGTATCGGTCGA a recorded binding signal greater than or equal to 4 log2 normalized intensity? 1

Threshold query (binding signal >= 4 log2 normalized intensity) on TGCAGCCCTGCCACTCTTTTTTAGACTTTGGCCTAGGGAGATTAGAGTATCGGTCGA 1

Item TTCAAATTCTTTGCCATGACCTTTGAAGCCGCCTAGGGAGATTAGAGTATCGGTCGA with binding signal of 4 log2 normalized intensity or above? 1

Say whether ATGACCTCTTTTAGTAACTGACTTTAACTTGCCTAGGGAGATTAGAGTATCGGTCGA shows binding signal of 4 log2 normalized intensity or more. -1

API: above_or_equal(metric=binding signal, cutoff=4 log2 normalized intensity) for item GGTACTGGAAACTGGGCAAGGTCCATTACGGCCTAGGGAGATTAGAGTATCGGTCGA -1

Tell me whether binding signal is at least 4 log2 normalized intensity here: GGCAGATATGAAAGAGCCATGGACTGCTGAGCCTAGGGAGATTAGAGTATCGGTCGA -1

Exam item: decide whether the reported binding signal for TTTGACATCACCTAACTTGTGGCTGGGTGAGCCTAGGGAGATTAGAGTATCGGTCGA is at least 4 log2 normalized intensity. -1

Reported binding signal at or above 4 log2 normalized intensity? CCACTCTTTTTTAGACTTTGACCTCCATATGCCTAGGGAGATTAGAGTATCGGTCGA 1

Please check the record CTGACCTCTTTTGGATTTTTCCATATCTGTGCCTAGGGAGATTAGAGTATCGGTCGA and state if its binding signal is at or above 4 log2 normalized intensity. -1

Assess whether reported binding signal for TAGGTATGCCCCATGGTAAGAACTACAGTTGCCTAGGGAGATTAGAGTATCGGTCGA sits at 4 log2 normalized intensity or higher. -1

Is binding signal at least 4 log2 normalized intensity? Consider GGTCTGTTTGTGAAACAGTGGGCAATATGAGCCTAGGGAGATTAGAGTATCGGTCGA -1

Answer whether binding signal of CTCTTTAGGCTGGACTCTGACCCATTCCTTGCCTAGGGAGATTAGAGTATCGGTCGA is greater than or equal to 4 log2 normalized intensity. 1

Record ACTACCTCTTTAGGCTGGACTCTGACCCATGCCTAGGGAGATTAGAGTATCGGTCGA ; criterion: binding signal no lower than 4 log2 normalized intensity. Met? 1

Threshold query (binding signal >= 4 log2 normalized intensity) on AGCAATTCAAATTCTTTGCCATGACCTTTGGCCTAGGGAGATTAGAGTATCGGTCGA 1
